Experiment: Pharmacokinetics after peroral administration of test compounds
Type: in vivo, rat
Test Context: male Wistar rats, p.o.; bioavailability
Observable: in vivo PK, rat p.o. F (%)

Worked set:
- CC1=C(C#N)C(c2cc3cn[nH]c3cc2F)C(C#N)=C(C(F)(F)F)N1 (racemic) [Example 19]: 40
- CC1=C(C#N)C(c2ccc3[nH]nc(C)c3c2)C(C#N)=C(C(F)F)N1 (single isomer, unassigned) [Example 3]: 33
- CC1=C(C#N)C(c2cc3c(C)n[nH]c3cc2F)C(C#N)=C(C(F)F)N1 (racemic) [Example 7]: 68
- CC1=C(C#N)C(c2ccc3[nH]nc(C)c3c2)C(C#N)=C(C(F)(F)F)N1 (single isomer, unassigned) [Example 6]: 62
- N#CC1=C(C(F)F)NC(C(F)F)=C(C#N)C1c1cc2cn[nH]c2cc1F [Example 15]: 63
- Cc1n[nH]c2cc(F)c(C3C(C#N)=C(C(F)F)NC(C(F)F)=C3C#N)cc12 [Example 14]: 62

P. Cc1n[nH]c2ccc(C3C(C#N)=C(C(F)F)NC(C(F)F)=C3C#N)cc12 [Example 13]
Q. CC1=C(C#N)C(c2cc3c(C)n[nH]c3cc2F)C(C#N)=C(C(F)(F)F)N1 (single isomer, unassigned) [Example 12]
For the pair P and Q , which member has the lower in vivo PK, rat p.o. F number? Answer by stating the label of the chosen item.
Q
(Q: 48%, P: 70%)

----------
Experiment: Pharmacokinetics after peroral administration of test compounds
Assay type: in vivo, rat
Test Context: male Wistar rats, p.o.; dose and body weight-normalized AUC
Let's look at some compounds and their measured in vivo PK, rat p.o. AUCnorm.
Give just the number in kg·h/L; leave the unit off.

Worked set:
• CC1=C(C#N)C(c2ccc3[nH]nc(C)c3c2)C(C#N)=C(C(F)(F)F)N1 (single isomer, unassigned) = 0.70
• CC1=C(C#N)C(c2ccc3[nH]nc(C)c3c2)C(C#N)=C(C(F)F)N1 (single isomer, unassigned) = 0.16
• CC1=C(C#N)C(c2cc3c(C)n[nH]c3cc2F)C(C#N)=C(C(F)(F)F)N1 (single isomer, unassigned) = 1.1
• CC1=C(C#N)C(c2cc3c(C)n[nH]c3cc2F)C(C#N)=C(C(F)F)N1 (racemic) = 0.69
• Cc1n[nH]c2cc(F)c(C3C(C#N)=C(C(F)F)NC(C(F)F)=C3C#N)cc12 = 4.73

// returns reported in vivo PK, rat p.o. AUCnorm for input "Cc1n[nH]c2ccc(C3C(C#N)=C(C(F)F)NC(C(F)F)=C3C#N)cc12"
6.16

// returns reported in vivo PK, rat p.o. AUCnorm for input CC1=C(C#N)C(c2cc3cn[nH]c3cc2F)C(C#N)=C(C(F)(F)F)N1 (racemic)
0.33

// returns reported in vivo PK, rat p.o. AUCnorm for input "N#CC1=C(C(F)F)NC(C(F)F)=C(C#N)C1c1cc2cn[nH]c2cc1F"
3.87

----------
Target System: recombinant kinase domain of the human c-Met (amino acids 960-1390) (Homo sapiens (Human))
Sequence (P08581 960-1390): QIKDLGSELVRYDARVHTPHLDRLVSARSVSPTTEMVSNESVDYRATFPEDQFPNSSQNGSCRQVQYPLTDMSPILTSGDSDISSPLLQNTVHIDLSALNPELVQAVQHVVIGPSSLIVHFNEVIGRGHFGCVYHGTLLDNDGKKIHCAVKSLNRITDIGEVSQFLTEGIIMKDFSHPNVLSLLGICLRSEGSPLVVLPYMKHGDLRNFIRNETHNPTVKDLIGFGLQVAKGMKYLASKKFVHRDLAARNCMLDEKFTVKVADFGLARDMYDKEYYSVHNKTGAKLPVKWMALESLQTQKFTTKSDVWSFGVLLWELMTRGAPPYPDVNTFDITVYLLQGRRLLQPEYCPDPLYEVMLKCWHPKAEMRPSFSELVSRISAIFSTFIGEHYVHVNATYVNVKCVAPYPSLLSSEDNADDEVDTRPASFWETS
Experiment: c-Met receptor tyrosine kinase homogeneous time-resolved fluorescence assay (alternative format)
Test Context: HTRF format; ATP 10 μM
Observable: IC50 (nM)

Worked set:
- Cc1n[nH]c2cc(F)c(C3C(C#N)=C(C(F)F)NC(C(F)F)=C3C#N)cc12: 3
- CC1=C(C#N)C(c2ccc3[nH]nc(C)c3c2)C(C#N)=C(C(F)F)N1 (single isomer, unassigned) [Example 2]: 2

P. CC1=C(C#N)C(c2ccc3[nH]nc(C)c3c2)C(C#N)=C(C(F)F)N1 (single isomer, unassigned) [Example 3]
Q. CCC(F)(F)C1=C(C#N)C(c2ccc3[nH]nc(C)c3c2)C(C#N)=C(C)N1 (racemic)
R. CC1=C(C#N)C(c2ccc3[nH]nc(C)c3c2)C(C#N)=C(C(F)(F)F)N1 (single isomer, unassigned)
Given 3 molecules, produce a descending ranking by IC50. Please express your ranking as an ordered list of the labels.
Q, P, R
(Q: 3 nM, P: 2 nM, R: 1 nM)

----------
Experiment: Pharmacokinetics after intravenous administration of test compounds
Assay type: in vivo, rat
Test Context: rat i.v.; Fmax,calc=[1−CLblood/Qh]*100, Qh 4.2 L per h per kg
Observable: in vivo PK, rat i.v. Fmax, calc (%)

Worked set:
* CC1=C(C#N)C(c2cc3cn[nH]c3cc2F)C(C#N)=C(C(F)(F)F)N1 (racemic) [Example 19] | 48
* CC1=C(C#N)C(c2cc3c(C)n[nH]c3cc2F)C(C#N)=C(C(F)(F)F)N1 (single isomer, unassigned) [Example 12] | 81

P. Cc1n[nH]c2cc(F)c(C3C(C#N)=C(C(F)F)NC(C(F)F)=C3C#N)cc12 [Example 14]
Q. CC1=C(C#N)C(c2cc3c(C)n[nH]c3cc2F)C(C#N)=C(C(F)F)N1 (racemic) [Example 7]
Select the item with the higher value of in vivo PK, rat i.v. Fmax, calc from the options P and Q listed. Answer by stating the label of the chosen item.
P

----------
Experiment: Pharmacokinetics after intravenous administration of test compounds
Assay type: in vivo, rat
Test Context: male Wistar rats, i.v.; total blood clearance
Observable: in vivo PK, rat i.v. CLblood (mL/min/kg)

I. CC1=C(C#N)C(c2cc3c(C)n[nH]c3cc2F)C(C#N)=C(C(F)F)N1 (racemic)
II. CC1=C(C#N)C(c2cc3c(C)n[nH]c3cc2F)C(C#N)=C(C(F)(F)F)N1 (single isomer, unassigned)
III. CC1=C(C#N)C(c2ccc3[nH]nc(C)c3c2)C(C#N)=C(C(F)F)N1 (single isomer, unassigned)
Sort entries by in vivo PK, rat i.v. CLblood from minimum to maximum value. Please express your ranking as an ordered list of the labels.
II, I, III
